Experiment: Pharmacokinetics, CF Phase 2 preliminary analysis
Assay type: in vivo, human
Settings: both sexes, human, in vivo, oral, 20 mg/kg, Cycle 2 higher dose 10, 10, 20 mg/kg, Day 1, N = 15, mean
Observation type: Cmax (ng/mL)
Output spec: scalar in ng/mL, unitless text.

// returns reported Cmax for input O=C(O)c1cccc(-c2noc(-c3ccccc3F)n2)c1
41000

###

Experiment: Pharmacokinetics, CF Phase 2 preliminary analysis
Type: in vivo, human
Details: both sexes, human, in vivo, oral, 8 mg/kg, Cycle 1 lower dose 4, 4, 8 mg/kg, Day 1, N = 15, mean
Observation type: Cmax
Note: state the figure and append the unit.

// returns reported Cmax for input O=C(O)c1cccc(-c2noc(-c3ccccc3F)n2)c1
16000 ng/mL

###

Assay: Pharmacokinetics, CF Phase 2 preliminary analysis
Assay type: in vivo, human
Details: both sexes, human, in vivo, oral, 8 mg/kg, Cycle 1 lower dose 4, 4, 8 mg/kg, Day 1, N = 15, mean; read-out: AUC0-24
Observation type: AUC(0-t)
Note: state the figure and append the unit.

// returns reported AUC(0-t) for input O=C(O)c1cccc(-c2noc(-c3ccccc3F)n2)c1
145 µg·h/mL

###

Test: Pharmacokinetics, CF Phase 2 preliminary analysis
Type: in vivo, human
Conditions: both sexes, human, in vivo, oral, 20 mg/kg, Cycle 2 higher dose 10, 10, 20 mg/kg, Day 14, N = 15, mean; read-out: AUC0-24
From the text: 3-[5-(2-Fluoro-phenyl)-[1,2,4]oxadiazol-3-yl]-benzoic acid was provided in a formulation described herein. The 3-[5-(2-fluoro-phenyl)-[1,2,4]oxadiazol-3-yl]-benzoic acid interim PK parameters from these 15 patients are described in Table 17.
Observation type: AUC(0-t)
Note: state the figure and append the unit.

// returns reported AUC(0-t) for input O=C(O)c1cccc(-c2noc(-c3ccccc3F)n2)c1
417 µg·h/mL

###

Experiment: Pharmacokinetics, CF Phase 2 preliminary analysis
Type: in vivo, human
Details: both sexes, human, in vivo, oral, 8 mg/kg, Cycle 1 lower dose 4, 4, 8 mg/kg, Day 14, N = 15, mean; read-out: AUC0-24
Observation type: AUC(0-t) (µg·h/mL)
Output spec: scalar in µg·h/mL, unitless text.

// returns reported AUC(0-t) for input O=C(O)c1cccc(-c2noc(-c3ccccc3F)n2)c1
124

###

Assay: Pharmacokinetics, CF Phase 2 preliminary analysis
Assay type: in vivo, human
Conditions: both sexes, human, in vivo, oral, 20 mg/kg, Cycle 2 higher dose 10, 10, 20 mg/kg, Day 1, N = 15, mean; read-out: AUC0-24
Observation type: AUC(0-t) (µg·h/mL)
Output spec: scalar in µg·h/mL, unitless text.

// returns reported AUC(0-t) for input O=C(O)c1cccc(-c2noc(-c3ccccc3F)n2)c1
435

###

Assay: Pharmacokinetics, CF Phase 2 preliminary analysis
Type: in vivo, human
Details: both sexes, human, in vivo, oral, 20 mg/kg, Cycle 2 higher dose 10, 10, 20 mg/kg, Day 14, N = 15, mean
Observation type: Cmax
Note: state the figure and append the unit.

// returns reported Cmax for input O=C(O)c1cccc(-c2noc(-c3ccccc3F)n2)c1
36 µg/mL
